# PROTOCOL SUMMARY: Plasma stability, human
# Format: in vitro ADME
# MEASUREMENT CONDITIONS: 5uM, triplicates, 37 °C
VALUE KIND: Plasma stability Rem. at 120 min (%)
Answers are plain numbers, in %.

Answered cases to consult:
{"COMPOUND": "CCN(C[C@H]1O[C@@H](n2cc(C#Cc3ccc(C(N)=O)cc3)c3c(N)ncnc32)[C@H](O)[C@@H]1O)S(=O)(=O)c1ccc(OC)c(C#N)c1 [Compound 12o]", "MEASURED VALUE": 95.6}
{"COMPOUND": "CCN(C[C@H]1O[C@@H](n2cc(C#Cc3cccnc3)c3c(N)ncnc32)[C@H](O)[C@@H]1O)S(=O)(=O)c1ccc(OC)c(C#N)c1 [Compound 12l]", "MEASURED VALUE": 89.8}
{"COMPOUND": "COc1ccc(S(=O)(=O)N(C)C[C@H]2O[C@@H](n3cc(C#Cc4cccnc4)c4c(N)ncnc43)[C@H](O)[C@@H]2O)cc1C#N [Compound 12s]", "MEASURED VALUE": 86.9}
{"COMPOUND": "CCN(C[C@H]1O[C@@H](n2cc(C#Cc3cnc4ccccc4c3)c3c(N)ncnc32)[C@H](O)[C@@H]1O)S(=O)(=O)c1ccc(OC)c(C#N)c1 [Compound 12e]", "MEASURED VALUE": 76.3}
{"COMPOUND": "COc1ccc(S(=O)(=O)N(C)C[C@H]2O[C@@H](n3cc(C#Cc4cnc5ccccc5c4)c4c(N)ncnc43)[C@H](O)[C@@H]2O)cc1C#N [Compound 12q]", "MEASURED VALUE": 97.2}
{"COMPOUND": "CCN(C[C@H]1O[C@@H](n2cc(C#Cc3ccc(N)nc3)c3c(N)ncnc32)[C@H](O)[C@@H]1O)S(=O)(=O)c1ccc(OC)c(C#N)c1 [Compound 12h]", "MEASURED VALUE": 102.3}
{"COMPOUND": "CCN(C[C@H]1O[C@@H](n2cc(C#Cc3nc4ccccc4[nH]3)c3c(N)ncnc32)[C@H](O)[C@@H]1O)S(=O)(=O)c1ccc(OC)c(C#N)c1 [Compound 12a]", "MEASURED VALUE": 84.3}

Note: attention shifts to another entry.
Recorded result, COc1ccc(S(=O)(=O)N(C)C[C@H]2O[C@@H](n3cc(C#Cc4ccc(C(N)=O)cc4)c4c(N)ncnc43)[C@H](O)[C@@H]2O)cc1C#N [Compound 12r] , Plasma stability Rem. at 120 min: 89.7

* * *

# PROTOCOL SUMMARY: Microsomal stability, human
# Type: in vitro ADME
# MEASUREMENT CONDITIONS: 0.5 mg/ml human microsomes, 5uM, triplicates
Think of 60% as a floor: if Microsomal stability Rem. at 45 min stands on it or above, it is y; beneath it, n.

Is reported Microsomal stability Rem. at 45 min greater than or equal to 60% here: COc1ccc(S(=O)(=O)N(C)C[C@H]2O[C@@H](n3cc(C#Cc4ccc(C(N)=O)cc4)c4c(N)ncnc43)[C@H](O)[C@@H]2O)cc1C#N [Compound 12r]
y

Is reported Microsomal stability Rem. at 45 min greater than or equal to 60% here: CCN(C[C@H]1O[C@@H](n2cc(C#Cc3nc4ccccc4[nH]3)c3c(N)ncnc32)[C@H](O)[C@@H]1O)S(=O)(=O)c1ccc(OC)c(C#N)c1 [Compound 12a]
n

Is reported Microsomal stability Rem. at 45 min greater than or equal to 60% here: COc1ccc(S(=O)(=O)N(C)C[C@H]2O[C@@H](n3cc(C#Cc4cnc5ccccc5c4)c4c(N)ncnc43)[C@H](O)[C@@H]2O)cc1C#N [Compound 12q]
y

Is reported Microsomal stability Rem. at 45 min greater than or equal to 60% here: CCN(C[C@H]1O[C@@H](n2cc(C#Cc3ccc(N)nc3)c3c(N)ncnc32)[C@H](O)[C@@H]1O)S(=O)(=O)c1ccc(OC)c(C#N)c1 [Compound 12h]
n

Is reported Microsomal stability Rem. at 45 min greater than or equal to 60% here: COc1ccc(S(=O)(=O)N(C)C[C@H]2O[C@@H](n3cc(C#Cc4cccnc4)c4c(N)ncnc43)[C@H](O)[C@@H]2O)cc1C#N [Compound 12s]
n
